System under test: Human, recombinant dihydrofolate reductase (Homo sapiens, UniProt P00374)
Construct: purchased Sigma D6566
Sequence (P00374 1-187): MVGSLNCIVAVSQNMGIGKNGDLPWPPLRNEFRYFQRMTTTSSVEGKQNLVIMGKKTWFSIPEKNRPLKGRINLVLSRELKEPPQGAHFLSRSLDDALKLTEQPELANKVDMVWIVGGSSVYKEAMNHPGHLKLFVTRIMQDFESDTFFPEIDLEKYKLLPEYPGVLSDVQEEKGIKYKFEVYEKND
Test summary: Human DHFR assay
Assay type: biochemical
Condition parameters: Table 1, read-out: hDHFR IC50
Method: The assay is an adaptation for 96-well plate format from Appleman et al. (Appleman, J R; Howell, E E; Kraut, J; Kuhl, M and Blakley, R L (1988) J. Biol. Chem. 263, 9187-9198). […] After a 10 min. pre-incubation at room temperature, dihydrofolic acid (Sigma, D7006) was added and the kinetic traces at 340 nm measured on a Spectra Max 190 plate reader at room temperature. Reaction rates were determined from the slopes of the linear portions of the progress curves. […]

Structure: CCC(CC)C(=O)N1CCC(COc2cccc3nc(N)nc(N)c23)CC1
System under test: Human, recombinant dihydrofolate reductase (Homo sapiens, UniProt P00374)
IC50: > 100 µM

Structure: CN(C)c1cccc(C(=O)N2CCC(COc3cccc4nc(N)nc(N)c34)CC2)c1
System under test: Human, recombinant dihydrofolate reductase (Homo sapiens, UniProt P00374)
IC50: > 100 µM

Structure: CN1CCC(COc2cccc3nc(N)nc(N)c23)CC1
System under test: Human, recombinant dihydrofolate reductase (Homo sapiens, UniProt P00374)
IC50: > 100 µM

Structure: Nc1nc(N)c2c(OCC3CCN(C(=O)c4cccc(OC(F)(F)F)c4)CC3)cccc2n1
System under test: Human, recombinant dihydrofolate reductase (Homo sapiens, UniProt P00374)
IC50: 20 to 100 µM

Structure: COc1ccccc1CN1CCC(COc2cccc3nc(N)nc(N)c23)CC1
System under test: Human, recombinant dihydrofolate reductase (Homo sapiens, UniProt P00374)
IC50: > 100 µM

====

System under test: Human, recombinant dihydrofolate reductase (Homo sapiens, UniProt P00374)
Construct: purchased Sigma D6566
Sequence (P00374 1-187): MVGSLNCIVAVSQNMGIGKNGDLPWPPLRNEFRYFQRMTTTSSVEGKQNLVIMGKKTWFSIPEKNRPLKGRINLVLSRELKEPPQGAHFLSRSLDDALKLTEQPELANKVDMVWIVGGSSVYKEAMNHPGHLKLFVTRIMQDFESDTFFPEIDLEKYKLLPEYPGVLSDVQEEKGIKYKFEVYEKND
Test summary: Human DHFR assay
Type: biochemical
Condition parameters: Table 1, read-out: hDHFR IC50
Method: The assay is an adaptation for 96-well plate format from Appleman et al. (Appleman, J R; Howell, E E; Kraut, J; Kuhl, M and Blakley, R L (1988) J. Biol. Chem. 263, 9187-9198). […] After a 10 min. pre-incubation at room temperature, dihydrofolic acid (Sigma, D7006) was added and the kinetic traces at 340 nm measured on a Spectra Max 190 plate reader at room temperature. Reaction rates were determined from the slopes of the linear portions of the progress curves. […]
pIC50: −log10 of the molar value. Counter-ions that a name gives are not always drawn.
# pIC50 values compiled below
Endpoint label: pIC50

Compound: Cc1cccc(CN2CCC(COc3cccc4nc(N)nc(N)c34)CC2)c1 [Example-008]
Result value: < 4.00
--
Compound: Nc1nc(N)c2c(OCC3CCN(Cc4cccnc4)CC3)cccc2n1 [Example-120]
Result value: < 4.00
--
Compound: Nc1nc(N)c2c(OCC3CCN(C(=O)C4CCCC4)CC3)cccc2n1 [Example-069]
Result value: < 4.00
--
Compound: CC(C)CCN1CCC(COc2cccc3nc(N)nc(N)c23)CC1 [Example-139]
Result value: < 4.00
--
Compound: Nc1nc(N)c2c(OCC3CCN(Cc4cc(F)ccc4F)CC3)cccc2n1 [Example-143]
Result value: 4.00 to 4.70
--
Compound: Nc1nc(N)c2c(OCC3CCN(S(=O)(=O)c4ccccc4)CC3)cccc2n1 [Example-097]
Result value: > 4.70
--
Compound: Nc1nc(N)c2c(OCC3CCN(Cc4c(F)cccc4F)CC3)cccc2n1 [Example-147]
Result value: < 4.00
--
Compound: CCC(C)C(=O)N1CCC(COc2cccc3nc(N)nc(N)c23)CC1 (stereo not shown) [Example-068]
Result value: < 4.00
--
Compound: Cc1cccc(CN2CCC(COc3cccc4nc(N)nc(N)c34)CC2)c1F [Example-092]
Result value: < 4.00
--
Compound: Nc1nc(N)c2c(OCC3CCN(C(=O)c4ccccc4Cl)CC3)cccc2n1 [Example-015]
Result value: 4.00 to 4.70
--
Compound: Nc1nc(N)c2c(OCC3CCN(CC4CCCCC4)CC3)cccc2n1 [Example-141]
Result value: < 4.00
--
Compound: Nc1nc(N)c2c(OCC3CCN(Cc4cccc(I)c4)CC3)cccc2n1 [Example-043]
Result value: > 4.70
--
Compound: Cc1ccc(CN2CCC(COc3cccc4nc(N)nc(N)c34)CC2)cc1 [Example-009, hydrochloride]
Result value: < 4.00
--
Compound: Nc1nc(N)c2c(OCC3CCN(Cc4ccc5c(c4)OCO5)CC3)cccc2n1 [Example-099]
Result value: 4.00 to 4.70
--
Compound: Nc1nc(N)c2c(OCC3CCN(CC4CCCO4)CC3)cccc2n1 (stereo not shown) [Example-128]
Result value: < 4.00
--
Compound: CC(C)CN1CCC(COc2cccc3nc(N)nc(N)c23)CC1 [Example-138]
Result value: < 4.00
--
Compound: Cc1ccccc1CN1CCC(COc2cccc3nc(N)nc(N)c23)CC1 [Example-007]
Result value: 4.00 to 4.70
--
Compound: Nc1nc(N)c2c(OCC3CCN(CC4CC4)CC3)cccc2n1 [Example-095]
Result value: < 4.00
--
Compound: Nc1nc(N)c2c(OCC3CCN(Cc4cccc(F)c4F)CC3)cccc2n1 [Example-012]
Result value: 4.00 to 4.70
--
Compound: Nc1nc(N)c2c(OCC3CCN(C(=O)c4cccc5ccccc45)CC3)cccc2n1 [Example-058]
Result value: 4.00 to 4.70
--
Compound: Nc1nc(N)c2c(OCC3CCN(Cc4c(Cl)cccc4Cl)CC3)cccc2n1 [Example-142]
Result value: < 4.00
--
Compound: Nc1nc(N)c2c(OCC3CCN(Cc4cccc(Cl)c4)CC3)cccc2n1 [Example-002]
Result value: > 4.70

====

# IC50 values compiled below
System under test: Human, recombinant dihydrofolate reductase (Homo sapiens, UniProt P00374)
Construct: purchased Sigma D6566
Test summary: Human DHFR assay
Type: biochemical
Condition parameters: Table 2, read-out: hDHFR IC50
Protocol: The assay is an adaptation for 96-well plate format from Appleman et al. (Appleman, J R; Howell, E E; Kraut, J; Kuhl, M and Blakley, R L (1988) J. Biol. Chem. 263, 9187-9198). […] After a 10 min. pre-incubation at room temperature, dihydrofolic acid (Sigma, D7006) was added and the kinetic traces at 340 nm measured on a Spectra Max 190 plate reader at room temperature. Reaction rates were determined from the slopes of the linear portions of the progress curves. […]

Compound: Nc1nc(N)c2c(OCC3CCC(Cc4ccccc4F)CC3)cccc2n1 (stereo not shown)
IC50: 20 to 100 µM
--
Compound: Nc1nc(N)c2c(OC[C@H]3CC[C@H](Cc4ccccc4Cl)CC3)cccc2n1
IC50: > 100 µM
--
Compound: COc1ccccc1CC1CCC(COc2cccc3nc(N)nc(N)c23)CC1 (stereo not shown)
IC50: < 20 µM
--
Compound: Nc1nc(N)c2c(OC[C@H]3CC[C@H](Cc4cccc(Cl)c4)CC3)cccc2n1
IC50: < 20 µM

====

System under test: Human, recombinant dihydrofolate reductase (Homo sapiens, UniProt P00374)
Construct: purchased Sigma D6566
Test summary: Human DHFR assay
Assay type: biochemical
Condition parameters: Table 5, read-out: hDHFR IC50
pIC50: −log10 of the molar value.
# pIC50 values compiled below
Endpoint label: pIC50

Structure: Nc1nc(N)c2c(OCCN3CCN(C(=O)c4ccccc4F)CC3)cccc2n1
Result value: > 4.70
--
Structure: Nc1nc(N)c2c(OCCN3CCN(S(=O)(=O)c4ccc(F)cc4F)CC3)cccc2n1
Result value: > 4.70
--
Structure: CC(C)(C)OC(=O)N1CCN(CCOc2cccc3nc(N)nc(N)c23)CC1
Result value: > 4.70
--
Structure: Nc1nc(N)c2c(OCCN3CCN(S(=O)(=O)c4ccccc4)CC3)cccc2n1
Result value: > 4.70
--
Structure: Nc1nc(N)c2c(OCCN3CCN(Cc4ccccc4F)CC3)cccc2n1
Result value: 4.00 to 4.70
--
Structure: Nc1nc(N)c2c(OCCN3CCN(C(=O)c4ccc(Cl)c(Cl)c4)CC3)cccc2n1
Result value: > 4.70
--
Structure: Nc1nc(N)c2c(OCCN3CCN(S(=O)(=O)c4ccccc4F)CC3)cccc2n1
Result value: > 4.70
--
Structure: Nc1nc(N)c2c(OCCN3CCN(C(=O)c4ccc5c(c4)OCO5)CC3)cccc2n1
Result value: > 4.70
--
Structure: Nc1nc(N)c2c(OCCN3CCN(C(=O)c4ccc(F)cc4F)CC3)cccc2n1
Result value: 4.00 to 4.70
--
Structure: Nc1nc(N)c2c(OCCN3CCN(Cc4ccc(F)cc4F)CC3)cccc2n1
Result value: 4.00 to 4.70
--
Structure: Nc1nc(N)c2c(OCCN3CCN(C(=O)c4ccccc4)CC3)cccc2n1
Result value: > 4.70
--
Structure: Nc1nc(N)c2c(OCCN3CCN(S(=O)(=O)c4ccc(Cl)c(Cl)c4)CC3)cccc2n1
Result value: > 4.70
--
Structure: Nc1nc(N)c2c(OCCN3CCN(C(=O)c4ccc(Cl)cc4)CC3)cccc2n1
Result value: > 4.70
